# credit: ChEMBL document CHEMBL5247653

- assay_target: UniProtKB P49682
- Sequence (P49682 whole entry): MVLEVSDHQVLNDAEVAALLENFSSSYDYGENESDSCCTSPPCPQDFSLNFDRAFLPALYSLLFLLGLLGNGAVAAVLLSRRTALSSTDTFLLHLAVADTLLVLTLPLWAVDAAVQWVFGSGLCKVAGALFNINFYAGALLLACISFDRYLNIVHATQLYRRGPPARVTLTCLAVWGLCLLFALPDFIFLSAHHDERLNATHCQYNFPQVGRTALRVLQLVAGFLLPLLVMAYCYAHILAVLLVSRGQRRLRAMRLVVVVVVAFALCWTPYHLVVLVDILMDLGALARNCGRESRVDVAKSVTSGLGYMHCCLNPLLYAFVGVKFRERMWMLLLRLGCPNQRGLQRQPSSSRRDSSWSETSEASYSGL
- method_description: Antagonist activity at human CXCR3 expressed in CHO-K1 cells assessed as reduction in CXCL9 induced calcium flux by FLIPR method
- Type: cell-based
metric_name: IC50 (nM)
The reply should contain only the number, in nM.

Short answer on UniProtKB P49682 for Cc1ncn(CC(=O)N2CCN(c3sc(C(F)(F)F)nc3-c3cnc(C(F)(F)F)nc3)C[C@H]2CCO)n1 , IC50: 3.3

* * *

- assay_target: C-X-C chemokine receptor type 3 (Rattus norvegicus)
- Sequence (Q9JII9 whole entry): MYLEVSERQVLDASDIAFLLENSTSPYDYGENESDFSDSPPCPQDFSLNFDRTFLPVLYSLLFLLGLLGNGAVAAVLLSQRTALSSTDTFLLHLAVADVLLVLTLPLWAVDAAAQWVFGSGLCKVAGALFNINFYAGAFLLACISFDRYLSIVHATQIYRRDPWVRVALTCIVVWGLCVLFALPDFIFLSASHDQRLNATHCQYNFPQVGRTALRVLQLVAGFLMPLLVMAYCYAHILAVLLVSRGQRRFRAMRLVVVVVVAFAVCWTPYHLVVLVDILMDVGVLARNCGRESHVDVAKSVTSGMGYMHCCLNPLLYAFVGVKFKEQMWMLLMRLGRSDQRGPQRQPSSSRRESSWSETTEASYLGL
- method_description: Antagonist activity at CXCR3 in Wistar rat whole blood assessed as receptor internalization incubated for 30 mins in presence of CXCL10 by flow cytometric analysis
- Assay type: tissue-based
metric_name: pIC50
Note on pIC50: it is the negative log10 of concentration, concentration in mol/L.

Result for Cc1ncn(CC(=O)N2CCN(c3sc(C(F)(F)F)nc3-c3cnc(C(F)(F)F)nc3)C[C@H]2CCO)n1 , tested on C-X-C chemokine receptor type 3 (Rattus norvegicus), pIC50: 6.54
